B1: LINE1-full (parent)
chain: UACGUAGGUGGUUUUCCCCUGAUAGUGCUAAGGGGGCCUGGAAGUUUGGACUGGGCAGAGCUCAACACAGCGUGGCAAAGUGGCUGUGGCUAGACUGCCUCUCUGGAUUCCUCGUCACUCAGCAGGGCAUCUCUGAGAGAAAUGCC

# Variants of: B1
# test details: self-cleavage, relative activity (ratio to wild type); higher = more cleavage; in vitro, sequencing; the parent is a self-cleaving ribozyme
Quick reference: self-cleavage of the listed items.
quantity: self-cleavage

chain sequence	result value
UACGUAGGUGGUUUUCCCCUGAUAGUGCUGAGGGGGCCUGGAAGUUUGGACUGGGCAGUGCUCAACACAGCGUGGCAAAGUGGCUGUGGCUAGACUGCCUCUCUGGAUUCCUCGUCACUCAGCAGGGCAUCUCUGAGAGAAAUGCC	0.78
UACGUAGGUGGUUUUCCCCUGAUAGUGCUAAGGCGGCCUGGAAGUUUGGACUGGGGAGAGCUCAACACAGCGUGGCAAAGUGGCUGUGGCUAGACUGCCUCUCUGGAUUCCUCGUCACUCAGCAGGGCAUCUCUGAGAGAAAUGCC	0.03
UACGUAGGUGGUUUUCCCCUGAUAGUGCUAAGGGGGCCUGGAAGUUAGGACUGGGCAGAGCUCAACACAGCGUGGCAAAGUGGCUGUGGCUAGACUGCCUCUCUGGAUUCCUCGUCACUCAGCAGGGCGUCUCUGAGAGAAAUGCC	1.43
UACGUAGGUGGUUUUCCCCUGAUAGUGCUAAGGGGGCCUGGAAGUUUGGACUGGGCAGAGCUCAACACAGCGUGGCAAAGUGGCUGUGGCUAGACUGCCUCUCUGGAAUCCUCGACACUCAGCAGGGCAUCUCUGAGAGAAAUGCC	0.6
UUCGUAGGUGGUUUUCCCCUGAUAGUGCUAAGGGGGCCUGGAAGUUUGGACUGGGCAGAGCUCAACACAGCGUGGCAAAGUGGCUGUGGCUAGACUGCCUCUCUGGAUUCCUCGUCACUCAGCAGGGCAUCUCUGAGUGAAAUGCC	1.01
UACGUAGGUGGUUUCCCCCUGAUUGUGCUAAGGGGGCCUGGAAGUUUGGACUGGGCAGAGCUCAACACAGCGUGGCAAAGUGGCUGUGGCUAGACUGCCUCUCUGGAUUCCUCGUCACUCAGCAGGGCAUCUCUGAGAGAAAUGCC	1.08
UACGUAGGUGGUUUUCCCCUGAUAGUGCUAAGGGGGCCUGGAAGUUUGGACCGGGCAGAGCUCAACACAGCGUGGCAAAGUGGCUGUGGCUAGACUGCCUCUCUGGAUUCCUCGUCACUCAGCAGGGCAUCUCUGAGAGAAAGGCC	1.6
UACGUAGGUGGUUUUCCCCUGAUAGUGCUAAAGGGGCCUGGAAGUUUGGACUGGGCAGAGCUCAACACAGCGUGGCAAAGAGGCUGUGGCUAGACUGCCUCUCUGGAUUCCUCGUCACUCAGCAGGGCAUCUCUGAGAGAAAUGCC	1.46
UACGCAGGUGGUUUUCCCCUGAUAGUGCUAAGGGGGCCUGGAAGUUUGGACUGGGCAGAGCUCAACACAGCGUGGCAAAGUGGCUGUGGCUAGACUGCCUCUCUGGAUUCCUCGUCACUCAGCGGGGCAUCUCUGAGAGAAAUGCC	1.15
UACGUAGGUGGUUUUCCCCUGAUAGUGCUAAGGGGGCCUGGAAGUUUGGACUGGGCAGAGCUCAACACAGCGUGGCAAAGUGGCUGUGGCUAGACUGCCUCUCUGGAUUCCUCGUCACCCAGCAGGGCAUCGCUGAGAGAAAUGCC	2.83
UACGUAGGUGGUUUUCCCCUGAUAGAGCUAAGGGGGCCUGGAAGUUUGGACUGGGCAGAGCUCAACACAGCGUGGCAAAGAGGCUGUGGCUAGACUGCCUCUCUGGAUUCCUCGUCACUCAGCAGGGCAUCUCUGAGAGAAAUGCC	1.29
UACGUAGGUGGUUUUCCCCUGAUAGUGCUAAGGGGGCCUGGAAGUUUGGACUGGGCAGAGCUCUACACAGCGUGGCAAAGUGGCUGUGGCUAGACUGCCUCUCUGGAUUCCUCGUCACUCAGCAGGGCAUCUCUGUGAGAAAUGCC	0.45
UACGUAGGUGGUUUUCCCCUGAUAGUGCUAAGGGGGCCUGGAAGUUUGGUCUGGGCAGAGCUCAACACAGCGUGGCAAAGUGGCUGUGGCUAGACUGCCUCUCUGGAUUCCUCGUCACUCAGCAGGGCAUCUCUGAGUGAAAUGCC	1.16
UACGUAGGUGGUUUUCCCCUGAUAGUGCUAAGGGGGCCUGGAAGUUUGGACUGGGCAGAGCUCAACACAGCGUGGCAGAGUGGCUGUGGCUAGACUGCCACUCUGGAUUCCUCGUCACUCAGCAGGGCAUCUCUGAGAGAAAUGCC	0.16
UACGUGGGUGGUUUUCCCCUGAUAGUGCUAUGGGGGCCUGGAAGUUUGGACUGGGCAGAGCUCAACACAGCGUGGCAAAGUGGCUGUGGCUAGACUGCCUCUCUGGAUUCCUCGUCACUCAGCAGGGCAUCUCUGAGAGAAAUGCC	1.01
UACGUAGGUGGUCUUCCCCUGAUAGUGCUAAGGGGGCCUGGAAGUUUGGACUGGGCAGAGCUCAACACGGCGUGGCAAAGUGGCUGUGGCUAGACUGCCUCUCUGGAUUCCUCGUCACUCAGCAGGGCAUCUCUGAGAGAAAUGCC	0.5
UACGUAGGUGGUUUUCCCCUGAUAGUGCUAAGGGGGCCUGGAAUUUUGGACUGGGCAGAGCUCAACACAGCGUGGCAAAGUGGCUGUGGCUAGACGGCCUCUCUGGAUUCCUCGUCACUCAGCAGGGCAUCUCUGAGAGAAAUGCC	0.06
UACGUAGGUGGUUUUCCCCUGAUAGUGCUAAGGGGGCCUGGAAGUUUGGACUGGGCAGAGCUCAACACAGCGUGGCAAAGUGGCUGUGGCUAGACUGCCUCUCUGGAUUCCGCGUCACUCAGCAGGGUAUCUCUGAGAGAAAUGCC	2.54
